- run.description: qHTS of pediatric cancer cell lines to identify multiple opportunities for drug repurposing: Primary screen for NB1643 cells (AID 1347099); further: nearly all actives have a fitted effect of over 50% in size
- experimental.setup: NB1643 neuroblastoma viability, CellTiter-Glo luminescence, 48 h; series mostly up to 46 µM
Records with an inconclusive call do not appear. The source made the active and inactive calls. The call rests on the fitted dose curve; in most records, active means well fitted cell-killing curve with a large enough effect; inconclusive means small, poorly fitted or top-dose-only effect; inactive means no such curve, though single readings can be large or run the other way.
Choose the fitting class; nothing outside active, inactive is accepted.

Consider the following illustrative entries.
INSERT INTO assay_data (compound, label) VALUES
  ('C[N+](C)(CCOc1ccccc1)Cc1cccs1', 'inactive'),
  ('c1ccc2c(c1)CCc1ccccc1N2', 'inactive'),
  ('CO/N=C(\C(=O)O)c1csc(NC(=O)CCl)n1', 'inactive'),
  ('COCCc1ccc(OCC2CO2)cc1 (stereo not drawn)', 'inactive'),
  ('C=CC[N+]1([C@H]2C[C@H]3[C@@H]4CC[C@H]5C[C@H](OC(C)=O)[C@@H](N6CCCCC6)C[C@]5(C)[C@H]4CC[C@]3(C)[C@H]2OC(=O)CC)CCCCC1', 'inactive');

Hello, I am checking results. What call was entered for `O=C1CC(c2ccc(Cl)cc2)CC(=O)N1` ?
inactive

Give the logged outcome of this assay for the following compound: C[N+]1(CC2COC(c3ccccc3)(c3ccccc3)O2)CCCCC1 (stereo not drawn)
inactive

Tell me the recorded outcome of this test for `CCN(CC)CC(=O)OCC(=O)[C@@]1(O)CC[C@H]2[C@@H]3CCC4=CC(=O)CC[C@]4(C)[C@H]3[C@@H](O)C[C@@]21C` .
inactive

In this assay, the call recorded for O=C(CS(=O)Cc1ccco1)NC/C=C\COc1cc(CN2CCCCC2)ccn1 (stereo not drawn) was what?
inactive

What is the recorded call for this compound in the test? `O=C1CC[C@H](C(=O)N2CCCCC2)N1`
inactive

In this assay, the call recorded for `O=[N+]([O-])c1ccc(O)c2ncccc12` was what?
active

Test call, this compound: `Nc1ccc(C(=O)N2CC3CC(CN(Cc4ccccc4)C3)C2)cc1`
inactive

Please state the recorded outcome for this compound: `O=C(CCCCC(=O)Nc1c(I)cc(I)c(C(=O)O)c1I)Nc1c(I)cc(I)c(C(=O)O)c1I`
inactive

Recorded test call requested for `CCOC(=O)OCC/C(SC(=O)OCC)=C(\C)N(C=O)Cc1cnc(C)nc1N`
inactive

Short answer needed: outcome of this test for `O=C(CO)[C@@H](O)[C@H](O)[C@@H](O)CO` ?
inactive

How was `CO[C@@]1(NC(=O)CSC[C@@H](N)C(=O)O)C(=O)N2C(C(=O)O)=C(CSc3nnnn3C)CS[C@@H]21` classified in this test?
inactive

What did the test return for `CCCc1ncc(C(=O)O)s1` ?
inactive

Given CC(C)(C)C(O)/C=C/c1ccc2c(c1)OCO2 (stereo not drawn) , state the outcome it received in this test.
inactive

Answer briefly: the call reported for CCCN(CCC)C(=O)C(CCC(=O)OCCCN1CCN(CCOC(=O)Cc2c(C)n(C(=O)c3ccc(Cl)cc3)c3ccc(OC)cc23)CC1)NC(=O)c1ccccc1 (stereo not drawn) in this assay.
inactive

What was the test verdict on `CCOC(=O)N1CCC(Nc2ccc(Cl)cc2N)CC1` ?
active

So what was the verdict on `O=C(OCC1(COC(=O)c2cccnc2)CCCC(COC(=O)c2cccnc2)(COC(=O)c2cccnc2)C1O)c1cccnc1` in this test?
inactive

Per the assay record, what outcome was assigned to `O=C(Nc1ccc(S(=O)(=O)N2CCOCC2)cc1)c1cc(Cl)ccc1NS(=O)(=O)c1ccc(Cl)s1` ?
inactive

Lab log entry: `CC1(C)OC(=O)Nc2ccc(Br)cc21` — outcome as called in the assay?
inactive

Test call for this compound, please: `CCCCCCCCCCCCCCCCCCN(C)C`
inactive

Tell me the recorded outcome of this test for `OC1(c2ccccc2)CCNCC1` .
inactive

What did the test return for `Cc1nc(N)nc(N)c1-c1ccc(Cl)c(Cl)c1` ?
inactive
